molecular target: Voltage-gated N-type calcium channel alpha-1B subunit/Amyloid beta A4 precursor protein-binding family A member 1 (Homo sapiens, UniProt Q00975+Q02410); format: protein assay
Sequence (Q00975 whole entry): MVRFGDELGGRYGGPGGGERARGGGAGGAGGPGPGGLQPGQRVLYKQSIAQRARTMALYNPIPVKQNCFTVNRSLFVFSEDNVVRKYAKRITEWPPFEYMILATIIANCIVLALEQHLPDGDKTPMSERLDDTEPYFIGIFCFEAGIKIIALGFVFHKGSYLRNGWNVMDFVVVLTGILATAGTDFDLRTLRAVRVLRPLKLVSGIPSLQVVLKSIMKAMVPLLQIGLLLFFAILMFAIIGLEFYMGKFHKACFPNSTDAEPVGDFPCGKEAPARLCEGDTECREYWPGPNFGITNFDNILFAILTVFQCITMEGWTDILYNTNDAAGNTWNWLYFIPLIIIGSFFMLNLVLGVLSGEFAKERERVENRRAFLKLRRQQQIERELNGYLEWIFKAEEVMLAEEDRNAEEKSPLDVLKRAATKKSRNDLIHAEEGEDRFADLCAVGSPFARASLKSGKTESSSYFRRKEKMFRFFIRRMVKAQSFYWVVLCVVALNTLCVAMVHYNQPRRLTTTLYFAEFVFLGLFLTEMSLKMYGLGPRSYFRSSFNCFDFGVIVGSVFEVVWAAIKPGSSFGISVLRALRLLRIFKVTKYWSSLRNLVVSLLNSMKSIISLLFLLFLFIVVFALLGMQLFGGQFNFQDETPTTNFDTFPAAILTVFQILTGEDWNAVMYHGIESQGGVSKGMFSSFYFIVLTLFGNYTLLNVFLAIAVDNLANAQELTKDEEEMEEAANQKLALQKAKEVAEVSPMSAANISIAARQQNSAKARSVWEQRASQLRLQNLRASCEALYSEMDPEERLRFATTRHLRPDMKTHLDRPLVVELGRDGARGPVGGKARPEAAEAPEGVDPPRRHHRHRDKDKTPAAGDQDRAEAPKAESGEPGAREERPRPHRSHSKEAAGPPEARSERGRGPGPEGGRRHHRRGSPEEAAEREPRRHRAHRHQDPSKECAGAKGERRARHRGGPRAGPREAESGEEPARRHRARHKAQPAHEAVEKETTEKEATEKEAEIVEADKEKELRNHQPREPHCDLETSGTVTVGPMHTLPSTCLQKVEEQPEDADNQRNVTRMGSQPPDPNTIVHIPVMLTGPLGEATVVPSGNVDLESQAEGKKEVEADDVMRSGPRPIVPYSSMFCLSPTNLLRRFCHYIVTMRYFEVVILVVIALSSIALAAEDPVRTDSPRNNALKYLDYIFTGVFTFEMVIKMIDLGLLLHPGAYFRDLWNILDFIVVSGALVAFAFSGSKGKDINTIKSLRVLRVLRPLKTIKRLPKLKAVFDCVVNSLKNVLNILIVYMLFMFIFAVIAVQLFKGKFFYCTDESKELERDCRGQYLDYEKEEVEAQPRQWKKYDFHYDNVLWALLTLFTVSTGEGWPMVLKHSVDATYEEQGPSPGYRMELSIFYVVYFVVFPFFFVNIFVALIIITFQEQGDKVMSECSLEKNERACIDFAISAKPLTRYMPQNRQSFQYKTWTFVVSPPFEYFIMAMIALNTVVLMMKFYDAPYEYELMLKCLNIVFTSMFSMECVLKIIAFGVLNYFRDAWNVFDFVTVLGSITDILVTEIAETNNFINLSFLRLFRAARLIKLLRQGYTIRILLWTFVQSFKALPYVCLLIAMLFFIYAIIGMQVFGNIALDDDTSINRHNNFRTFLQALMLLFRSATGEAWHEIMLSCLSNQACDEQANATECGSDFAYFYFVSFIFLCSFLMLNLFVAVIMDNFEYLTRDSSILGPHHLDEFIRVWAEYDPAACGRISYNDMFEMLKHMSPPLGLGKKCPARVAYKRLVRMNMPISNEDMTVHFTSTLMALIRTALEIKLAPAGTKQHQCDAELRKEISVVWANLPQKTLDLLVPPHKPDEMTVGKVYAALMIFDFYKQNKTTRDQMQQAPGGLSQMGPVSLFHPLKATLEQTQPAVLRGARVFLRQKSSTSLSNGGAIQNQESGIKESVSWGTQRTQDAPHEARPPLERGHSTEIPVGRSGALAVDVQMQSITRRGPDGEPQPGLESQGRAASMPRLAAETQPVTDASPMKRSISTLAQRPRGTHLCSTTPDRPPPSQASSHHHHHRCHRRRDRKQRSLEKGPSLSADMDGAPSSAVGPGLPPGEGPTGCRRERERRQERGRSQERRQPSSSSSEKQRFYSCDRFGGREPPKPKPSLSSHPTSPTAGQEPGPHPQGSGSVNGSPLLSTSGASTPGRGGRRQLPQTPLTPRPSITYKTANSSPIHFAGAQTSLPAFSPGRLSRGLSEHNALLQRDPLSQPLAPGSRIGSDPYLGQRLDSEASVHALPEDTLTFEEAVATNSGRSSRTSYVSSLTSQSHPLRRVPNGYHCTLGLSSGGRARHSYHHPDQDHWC
Sequence (Q02410 whole entry): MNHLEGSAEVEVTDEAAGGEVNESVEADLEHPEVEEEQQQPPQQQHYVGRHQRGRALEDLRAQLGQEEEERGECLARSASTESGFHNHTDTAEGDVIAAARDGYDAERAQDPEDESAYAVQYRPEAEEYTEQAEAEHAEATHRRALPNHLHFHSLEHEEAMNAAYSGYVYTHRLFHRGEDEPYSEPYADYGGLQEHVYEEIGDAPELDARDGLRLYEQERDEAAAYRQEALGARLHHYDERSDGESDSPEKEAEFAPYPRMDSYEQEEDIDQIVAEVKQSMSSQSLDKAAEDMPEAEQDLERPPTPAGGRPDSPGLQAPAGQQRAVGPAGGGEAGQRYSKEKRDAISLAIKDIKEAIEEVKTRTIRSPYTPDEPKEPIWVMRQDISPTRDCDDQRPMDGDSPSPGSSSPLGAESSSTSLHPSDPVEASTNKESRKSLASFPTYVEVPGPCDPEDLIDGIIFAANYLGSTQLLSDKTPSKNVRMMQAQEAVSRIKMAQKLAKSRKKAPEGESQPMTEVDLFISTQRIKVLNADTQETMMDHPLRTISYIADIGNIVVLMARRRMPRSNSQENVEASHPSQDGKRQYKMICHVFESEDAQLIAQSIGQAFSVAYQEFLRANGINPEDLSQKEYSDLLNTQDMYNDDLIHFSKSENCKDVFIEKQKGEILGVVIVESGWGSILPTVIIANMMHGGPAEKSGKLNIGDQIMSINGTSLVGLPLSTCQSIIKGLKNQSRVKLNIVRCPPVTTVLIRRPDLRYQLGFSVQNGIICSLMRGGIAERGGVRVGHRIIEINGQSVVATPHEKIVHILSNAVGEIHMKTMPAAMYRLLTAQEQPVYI
Calls of active or inactive are those of the source.
Outcomes: t (active), f (inactive)

structure smiles | group label
Cc1ccccc1-c1cc(C(=O)Nc2sc(C(=O)OC(C)C)c(C)c2C#N)c2ccccc2n1 | f
CCOc1ccc(/C=C2/SC(=S)N(CCC(=O)Nc3ccc(C(=O)O)cc3)C2=O)cc1 | f
Cc1cc(C)c2c(=O)n(CC(=O)NC3CCCC3)sc2n1 | t
O=C(NCc1ccco1)c1ccc([N+](=O)[O-])o1 | t

----------
biological target: Voltage-gated N-type calcium channel alpha-1B subunit/Amyloid beta A4 precursor protein-binding family A member 1 (Homo sapiens, UniProt Q00975+Q02410); format: protein assay
Active and inactive are the calls of the source.
Readings of IC50 for the listed molecules

structure smiles | IC50
O=C(NCc1ccco1)c1ccc([N+](=O)[O-])o1 | 4.6 µM (active)
CCOc1ccc(/C=C2/SC(=S)N(CCC(=O)Nc3ccc(C(=O)O)cc3)C2=O)cc1 | 5.5 µM (active)
Cc1ccccc1-c1cc(C(=O)Nc2sc(C(=O)OC(C)C)c(C)c2C#N)c2ccccc2n1 | 17.9 µM (active)
Cc1cc(C)c2c(=O)n(CC(=O)NC3CCCC3)sc2n1 | 7.6 µM (active)
